Where do the numbers come from? From the supplement of paper PMC11246515.

# Procedure summary: total protein half-life in vivo (active degradation + dilution); higher = more stable protein
# Particulars: wild type E. coli NCM3722; growth: C-lim chemostat; doubling time 3 h

Residues	total protein half-life in vivo, h
MLDNVLRIATRQSPLALWQAHYVKDKLMASHPGLVVELVPMVTRGDVILDTPLAKVGGKGLFVKELEVALLENRADIAVHSMKDVPVEFPQGLGLVTICEREDPRDAFVSNNYDSLDALPAGSIVGTSSLRRQCQLAERRPDLIIRSLRGNVGTRLSKLDNGEYDAIILAVAGLKRLGLESRIRAALPPEISLPAVGQGAVGIECRLDDSRTRELLAALNHHETALRVTAERAMNTRLEGGCQVPIGSYAELIDGEIWLRALVGAPDGSQIIRGERRGAPQDAEQMGISLAEELLNNGAREILAEVYNGDAPA	2.81
MIIIRYLVRETLKSQLAILFILLLIFFCQKLVRILGAAVDGDIPANLVLSLLGLGVPEMAQLILPLSLFLGLLMTLGKLYTESEITVMHACGLSKAVLVKAAMILAVFTAIVAAVNVMWAGPWSSRHQDEVLAEAKANPGMAALAQGQFQQATNGSSVLFIESVDGSDFKDVFLAQIRPKGNARPSVVVADSGHLTQLRDGSQVVTLNQGTRFEGTALLRDFRITDFQDYQAIIGHQAVALDPNDTDQMDMRTLWNTDTDRARAELNWRITLVFTVFMMALMVVPLSVVNPRQGRVLSMLPAMLLYLLFFLIQTSLKSNGGKGKLDPTLWMWTVNLIYLALAIVLNLWDTVPVRRLRASFSRKGAV [P0AF98]	3.17
MIKRVLVVSMVGLSLVGCVNNDTLSGDVYTASEAKQVQNVSYGTIVNVRPVQIQGGDDSNVIGAIGGAVLGGFLGNTVGGGTGRSLATAAGAVAGGVAGQGVQSAMNKTQGVELEIRKDDGNTIMVVQKQGNTRFSPGQRVVLASNGSQVTVSPR [P0A905]	2.9
MENNEIQSVLMNALSLQEVHVSGDGSHFQVIAVGELFDGMSRVKKQQTVYGPLMEYIADNRIHAVSIKAYTPAEWARDRKLNGF [P0A9W6]	3.11
MRNKPFYLLCAFLWLAVSHALAADSTITIRGYVRDNGCSVAAESTNFTVDLMENAAKQFNNIGATTPVVPFRILLSPCGNAVSAVKVGFTGVADSHNANLLALENTVSAASGLGIQLLNEQQNQIPLNAPSSALSWTTLTPGKPNTLNFYARLMATQVPVTAGHINATATFTLEYQ	2.61
MNHSLKPWNTFGIDHNAQHIVCAEDEQQLLNAWQYATAEGQPVLILGEGSNVLFLEDYRGTVIINRIKGIEIHDEPDAWYLHVGAGENWHRLVKYTLQEGMPGLENLALIPGCVGSSPIQNIGAYGVELQRVCAYVDSVELATGKQVRLTAKECRFGYRDSIFKHEYQDRFAIVAVGLRLPKEWQPVLTYGDLTRLDPTTVTPQQVFNAVCHMRTTKLPDPKVNGNAGSFFKNPVVSAETAKALLSQFPTAPNYPQADGSVKLAAGWLIDQCQLKGMQIGGAAVHRQQALVLINEDNAKSEDVVQLAHHVRQKVGEKFNVWLEPEVRFIGASGEVSAVETIS	2.93
MGFLSGKRILVTGVASKLSIAYGIAQAMHREGAELAFTYQNDKLKGRVEEFAAQLGSDIVLQCDVAEDASIDTMFAELGKVWPKFDGFVHSIGFAPGDQLDGDYVNAVTREGFKIAHDISSYSFVAMAKACRSMLNPGSALLTLSYLGAERAIPNYNVMGLAKASLEANVRYMANAMGPEGVRVNAISAGPIRTLAASGIKDFRKMLAHCEAVTPIRRTVTIEDVGNSAAFLCSDLSAGISGEVVHVDGGFSIAAMNELELK [P0AEK4]	3.26
MSLINTKIKPFKNQAFKNGEFIEITEKDTEGRWSVFFFYPADFTFVCPTELGDVADHYEELQKLGVDVYAVSTDTHFTHKAWHSSSETIAKIKYAMIGDPTGALTRNFDNMREDEGLADRATFVVDPQGIIQAIEVTAEGIGRDASDLLRKIKAAQYVASHPGEVCPAKWKEGEATLAPSLDLVGKI [P0AE08]	2.89
MKRTKSIRHASFRKNWSARHLTPVALAVATVFMLAGCEKSDETVSLYQNADDCSAANPGKSAECTTAYNNALKEAERTAPKYATREDCVAEFGEGQCQQAPAQAGMAPENQAQAQQSSGSFWMPLMAGYMMGRLMGGGAGFAQQPLFSSKNPASPAYGKYTDATGKNYGAAQPGRTMTVPKTAMAPKPATTTTVTRGGFGESVAKQSTMQRSATGTSSRSMGG [P0ADT2]	1.83
MKGRWVKYLLMGTVVAMLAACSSKPTDRGQQYKDGKFTQPFSLVNQPDAVGAPINAGDFAEQINHIRNSSPRLYGNQSNVYNAVQEWLRAGGDTRNMRQFGIDAWQMEGADNYGNVQFTGYYTPVIQARHTRQGEFQYPIYRMPPKRGRLPSRAEIYAGALSDKYILAYSNSLMDNFIMDVQGSGYIDFGDGSPLNFFSYAGKNGHAYRSIGKVLIDRGEVKKEDMSMQAIRHWGETHSEAEVRELLEQNPSFVFFKPQSFAPVKGASAVPLVGRASVASDRSIIPPGTTLLAEVPLLDNNGKFNGQYELRLMVALDVGGAIKGQHFDIYQGIGPEAGHRAGWYNHYGRVWVLKTAPGAGNVFSG [P0A935]	1.88
MRVLLAPMEGVLDSLVRELLTEVNDYDLCITEFVRVVDQLLPVKVFHRICPELQNASRTPSGTLVRVQLLGQFPQWLAENAARAVELGSWGVDLNCGCPSKTVNGSGGGATLLKDPELIYQGAKAMREAVPAHLPVSVKVRLGWDSGEKKFEIADAVQQAGATELVVHGRTKEQGYRAEHIDWQAIGDIRQRLNIPVIANGEIWDWQSAQQCMAISGCDAVMIGRGALNIPNLSRVVKYNEPRMPWPEVVALLQKYTRLEKQGDTGLYHVARIKQWLSYLRKEYDEATELFQHVRVLNNSPDIARAIQAIDIEKL	2.89
MAIILGIDPGSRVTGYGVIRQVGRQLSYLGSGCIRTKVDDLPSRLKLIYAGVTEIITQFQPDYFAIEQVFMAKNADSALKLGQARGVAIVAAVNQELPVFEYAARQVKQTVVGIGSAEKSQVQHMVRTLLKLPANPQADAADALAIAITHCHVSQNAMQMSESRLNLARGRLR [P0A814]	2.26
